tested on: P. aeruginosa H1030 (MDR); assay: microbe, parasite or virus in culture; conditions: P. aeruginosa H1030 (MDR)
Square brackets hold non-standard residues; d marks the D form. Peptide text beside a SMILES is read from it. Nspe = C[C@H](NCC(=O)O)c1ccccc1; Nlys = NCCCCNCC(=O)O
Catalogue of MIC values
Put your answer as a value accompanied by its unit after it.

C[C@H](c1ccccc1)N(CC(N)=O)C(=O)CN(C(=O)CN(CCCCN)C(=O)CN(C(=O)CN(C(=O)CN(CCCCN)C(=O)CN(C(=O)CN(C(=O)CN(CCCCN)C(=O)CN(C(=O)CN(C(=O)CNCCCCN)[C@@H](C)c1ccccc1)[C@H](C)c1ccccc1)[C@@H](C)c1ccccc1)[C@H](C)c1ccccc1)[C@@H](C)c1ccccc1)[C@H](C)c1ccccc1)[C@@H](C)c1ccccc1 [1-Nrpe3,6,9,12, H-(NLys-Nspe-Nrpe)4-NH2]	8 µg/mL
C[C@@H](c1ccccc1)N(CC(N)=O)C(=O)CN(C(=O)CN(CCCCN)C(=O)CN(C(=O)CN(C(=O)CN(CCCCN)C(=O)CN(C(=O)CN(C(=O)CN(CCCCN)C(=O)CN(C(=O)CN(C(=O)CNCCCCN)[C@@H](C)c1ccccc1)[C@@H](C)c1ccccc1)[C@@H](C)c1ccccc1)[C@@H](C)c1ccccc1)[C@@H](C)c1ccccc1)[C@@H](C)c1ccccc1)[C@@H](C)c1ccccc1 [Peptoid 1, H-(NLys-Nspe-Nspe)4-NH2] (H-[Nlys][Nspe][Nspe][Nlys][Nspe][Nspe][Nlys][Nspe][Nspe][Nlys][Nspe][Nspe]-NH2)	4 µg/mL
C[C@@H](c1ccccc1)N(CC(N)=O)C(=O)CN(Cc1ccccc1)C(=O)CN(CCCCN)C(=O)CN(Cc1ccccc1)C(=O)CN(Cc1ccccc1)C(=O)CN(CCCCN)C(=O)CN(Cc1ccccc1)C(=O)CN(Cc1ccccc1)C(=O)CN(CCCCN)C(=O)CN(Cc1ccccc1)C(=O)CN(Cc1ccccc1)C(=O)CNCCCCN [Peptoid 1ach-Nspe12, H-(NLys-Npm-Npm)3-(NLys-Npm-Nspe)-NH2]	32 µg/mL

Lab note: next molecule to report on.
Would you kindly share the measured MIC for C[C@@H](c1ccccc1)N(CC(N)=O)C(=O)CN(C(=O)CN(CCCCN)C(=O)CN(Cc1ccccc1)C(=O)CN(Cc1ccccc1)C(=O)CN(CCCCN)C(=O)CN(C(=O)CN(C(=O)CN(CCCCN)C(=O)CN(Cc1ccccc1)C(=O)CN(Cc1ccccc1)C(=O)CNCCCCN)[C@@H](C)c1ccccc1)[C@@H](C)c1ccccc1)[C@@H](C)c1ccccc1 [1-Npm2,3,8,9, H-(NLys-Npm-Npm-NLys-Nspe-Nspe)2-NH2] ? 16 µg/mL

* * *

Catalogue of MIC values
System: P. aeruginosa 9 (MDR)
Assay: microbe, parasite or virus in culture
Conditions: 9 (MDR)
Method: The MICs of test agents were measured using a modified broth micro-dilution method in Difco Mueller Hinton medium, on a panel of bacterial pathogens that were both susceptible and resistant to common antibiotics (S1 File). Briefly, serial dilutions were performed in 0.01% acetic acid containing 0.2% bovine serum albumin at 10-fold the desired final concentration. […]
Numbered stars: 1 amine (or outer) side, 2 acyl side, 3 side chain; on linkers, the order of the positions; unused ones are H or OH. Square brackets hold non-standard residues; d marks the D form. Peptide text beside a SMILES is read from it. X1 = CC(C)[C@H](C)N(CC(=O)[*:2])[*:1]; Nspe = C[C@H](NCC(=O)O)c1ccccc1; Nlys = NCCCCNCC(=O)O
Could you give me the number in µg/mL? Just the number is fine.

C[C@@H](c1ccccc1)N(CC(N)=O)C(=O)CN(C(=O)CN(CCCCN)C(=O)CN(C(=O)CN(C(=O)CN(CCCCN)C(=O)[C@@H]1CCCN1C(=O)CN(C(=O)CN(CCCCN)C(=O)CN(C(=O)CN(C(=O)CNCCCCN)[C@@H](C)c1ccccc1)[C@@H](C)c1ccccc1)[C@@H](C)c1ccccc1)[C@@H](C)c1ccccc1)[C@@H](C)c1ccccc1)[C@@H](C)c1ccccc1 [Peptoid 1-Pro6] (H-[Nlys][Nspe][Nspe][Nlys][Nspe]P[Nlys][Nspe][Nspe][Nlys][Nspe][Nspe]-NH2)	256

Would you kindly share the measured MIC for CC(C)[C@H](C)N(CC(=O)N(CCCCN)CC(=O)N(CC(=O)N(CC(=O)N(CCCCN)CC(=O)N(CC(=O)N(CC(=O)N(CCCCN)CC(=O)N(CC(=O)N(CC(N)=O)[C@@H](C)c1ccccc1)[C@@H](C)c1ccccc1)[C@@H](C)C(C)C)[C@@H](C)C(C)C)[C@@H](C)c1ccccc1)[C@@H](C)c1ccccc1)C(=O)CN(C(=O)CNCCCCN)[C@@H](C)C(C)C [1-Nsdp2,3,8,9, H-(NLys-Nsdp-Nsdp-NLys-Nspe-Nspe)2-NH2] (H-[Nlys][X1][X1][Nlys][Nspe][Nspe][Nlys][X1][X1][Nlys][Nspe][Nspe]-NH2) ? 256
